target: PAS domain-containing serine/threonine-protein kinase (Homo sapiens) (UniProt Q96RG2); conditions: at 10 µM
Sequence (Q96RG2 whole entry, the tested form may be a part): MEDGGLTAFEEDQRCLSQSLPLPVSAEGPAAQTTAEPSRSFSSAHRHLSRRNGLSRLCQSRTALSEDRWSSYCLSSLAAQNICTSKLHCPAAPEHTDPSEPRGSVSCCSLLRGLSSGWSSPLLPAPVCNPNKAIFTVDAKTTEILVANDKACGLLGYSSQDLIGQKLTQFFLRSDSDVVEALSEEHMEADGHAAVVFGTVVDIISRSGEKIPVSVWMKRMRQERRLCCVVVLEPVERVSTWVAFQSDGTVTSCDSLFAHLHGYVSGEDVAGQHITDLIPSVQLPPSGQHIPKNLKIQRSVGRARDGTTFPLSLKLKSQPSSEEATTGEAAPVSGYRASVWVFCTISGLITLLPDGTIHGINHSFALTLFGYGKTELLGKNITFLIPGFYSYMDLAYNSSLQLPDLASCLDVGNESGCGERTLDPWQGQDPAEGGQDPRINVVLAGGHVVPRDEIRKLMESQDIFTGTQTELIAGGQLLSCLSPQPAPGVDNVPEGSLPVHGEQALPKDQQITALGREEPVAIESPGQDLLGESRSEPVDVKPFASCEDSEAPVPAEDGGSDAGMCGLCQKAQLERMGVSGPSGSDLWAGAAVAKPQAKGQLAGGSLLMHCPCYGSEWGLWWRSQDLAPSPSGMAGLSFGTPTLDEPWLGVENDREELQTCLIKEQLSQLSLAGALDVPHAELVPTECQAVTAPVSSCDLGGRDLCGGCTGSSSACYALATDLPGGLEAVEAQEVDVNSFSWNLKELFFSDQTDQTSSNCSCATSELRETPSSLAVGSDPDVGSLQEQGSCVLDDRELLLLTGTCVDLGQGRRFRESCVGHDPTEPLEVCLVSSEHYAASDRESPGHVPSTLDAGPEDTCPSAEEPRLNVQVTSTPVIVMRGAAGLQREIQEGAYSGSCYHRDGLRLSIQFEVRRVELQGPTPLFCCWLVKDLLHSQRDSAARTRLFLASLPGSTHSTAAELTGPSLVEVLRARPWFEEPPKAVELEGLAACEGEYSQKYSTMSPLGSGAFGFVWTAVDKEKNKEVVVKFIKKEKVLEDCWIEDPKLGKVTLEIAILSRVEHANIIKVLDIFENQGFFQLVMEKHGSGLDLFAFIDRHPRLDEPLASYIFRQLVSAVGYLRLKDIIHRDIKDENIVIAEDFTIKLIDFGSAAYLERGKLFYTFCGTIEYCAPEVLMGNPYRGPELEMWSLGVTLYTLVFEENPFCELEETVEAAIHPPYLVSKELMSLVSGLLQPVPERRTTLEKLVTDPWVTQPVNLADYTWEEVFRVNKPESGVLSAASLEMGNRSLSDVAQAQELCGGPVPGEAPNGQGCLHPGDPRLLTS
// reported residual activity for each item listed
Output should be the measured figure followed by the unit it is expressed in.

Task: Entry CCOc1cc2ncnc(Nc3cccc(Br)c3)c2cc1OCC : reported residual activity = ?
Output: 56%

Task: What value of residual activity has been recorded for this entry: Nc1n[nH]c2nnc(-c3c(-c4ccccc4)nn4ccccc34)cc12
Output: 114%

Task: What measured residual activity goes with CC(C)n1cnc2/c(=N/c3cccc(Cl)c3)nc(NCCO)[nH]c21 ?
Output: 114%

Further cases:
Task: # input molecule: Ic1cccc(CSc2nnc(-c3ccncc3)o2)c1 ; wanted: its residual activity
Output: 106%

Task: For the molecule CC#CC(=O)Nc1cc2c(Nc3ccc(F)c(Cl)c3)ncnc2cn1 , what residual activity is on record?
Output: 99%

Task: Find the recorded residual activity belonging to Cc1nc2cc3nc(-c4cccs4)cnc3cc2n1C and report it.
Output: 86%

Task: Which residual activity is reported for this molecule? Cc1ccc(NC2=CC(=O)c3sc(C)nc3C2=O)cc1
Output: 82%

Task: Query: residual activity; subject: O=C1NC(=O)/C(=C/c2ccc3c(c2)OC(F)(F)O3)S1
Output: 37%

---

Target: Tyrosine-protein kinase TXK (Homo sapiens) (UniProt P42681)
Sequence (whole entry): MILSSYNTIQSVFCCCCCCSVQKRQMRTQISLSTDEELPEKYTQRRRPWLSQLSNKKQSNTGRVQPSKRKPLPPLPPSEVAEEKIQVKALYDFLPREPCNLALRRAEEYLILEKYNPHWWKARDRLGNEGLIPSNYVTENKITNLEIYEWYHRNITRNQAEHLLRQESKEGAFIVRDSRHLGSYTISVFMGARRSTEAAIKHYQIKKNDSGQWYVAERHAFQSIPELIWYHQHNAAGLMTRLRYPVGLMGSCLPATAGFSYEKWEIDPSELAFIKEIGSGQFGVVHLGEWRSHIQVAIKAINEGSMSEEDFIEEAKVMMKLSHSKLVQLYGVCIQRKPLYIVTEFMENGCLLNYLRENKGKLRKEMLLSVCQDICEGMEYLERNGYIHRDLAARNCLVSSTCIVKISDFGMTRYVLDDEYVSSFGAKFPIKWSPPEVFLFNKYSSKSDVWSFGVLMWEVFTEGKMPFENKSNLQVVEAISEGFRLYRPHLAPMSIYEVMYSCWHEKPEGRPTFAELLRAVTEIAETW
Conditions: at 1 µM
measured-property: residual activity (%)
I only need the number, in %, no unit after it.

Illustrative cases are given below, each with its answer.
Task: I am curious: what residual activity value has been reported for COc1ccc(S(=O)(=O)N(CCO)c2ccccc2CN(C)C/C=C/c2ccc(Cl)cc2)cc1 ?
Output: 94

Task: Look at this compound and give its reported residual activity. Cc1nc(-c2ccccc2)c(-c2ccncc2)o1
Output: 86

Task: What value of measured residual activity is listed for CN(C)c1ccc(/C=C2\C(=O)Nc3ccccc32)cc1 ?
Output: 108

Task: GET /values?readout=residual activity&item= N#Cc1cnc2cnc(NCc3cccnc3)cc2c1Nc1ccc(F)c(Cl)c1
Output: 86

Task: Please look up its residual activity: O=C1NC(=O)c2cc(Nc3ccc(F)cc3)c(Nc3ccc(F)cc3)cc21
Output: 79

Task: Entry COc1cc2ncnc(N3CCN(C(=O)Nc4ccc(Oc5ccccc5)cc4)CC3)c2cc1OC : reported residual activity = ?
Output: 108

Task: What does the record list as residual activity for CCC(=O)Nc1ccc2ncnc(Nc3cccc(Br)c3)c2c1 ?
Output: 108

Task: Entry under review: Nc1cccc(-c2cc3c(Oc4cccc(O)c4)ncnc3[nH]2)c1 . Reported residual activity?
Output: 27

Task: Name the recorded residual activity for O=C(Nc1cccc(Nc2cc(Nc3cccc(C(F)(F)F)c3)ncn2)c1)C1CC1 .
Output: 109

Task: Using the record for COc1ccc(OC)c2c(=S)c3ccccc3[nH]c12 , report its residual activity.
Output: 84

Field: next compound
Task: Look at this compound and give its reported residual activity. O=C1Nc2ccc(Br)cc2/C1=C\c1cc2c([nH]1)CCCC2
Output: 107
